test-system: BoNT/A HC, recombinant binding domain (C-terminal domain of the heavy chain) of botulinum neurotoxin type A (Clostridium botulinum, UniProt P0DPI0 860-1296)
protocol-summary: SPR BIAcore, Hc on chip, scFv in flow
This listing pairs binders with measured koff.
// units = s⁻¹; emit number, no label

Before answering, review these 3 worked examples.
scFv S25 (scFv) scFv: QVKLQQSGAELVRPGASVKLSCKASGYSLTSYWMNWVKQRPQGGLEWIGNIHPSDSDTRFNQKFEDKATLTVDTSSSTAYMQLSSPTSEDSAVYYCARGLYNGFWYFDVWGQGTTVTVSSGGGGSGGGGSGGGGSDIELTQSPALMAASPGEKVIITCSVSSSISSSNLHWYQQKSGTSPKPWIYGTSNLASQVPVRFSGSGSGTSYSLTISSMEAEDAATYYCQQWSSYPLTFGAGTKLEIKR; 0.00082
scFv C39 (scFv) scFv: QVQLQESGGGSVKPGGSLKLSCAASGFTFSDYYMSWVRQTPEKRLEWVATISDGGSYTYYPDSVKGRFTISRDNAKNNLYLQMSSLKSEDTAIYYCVRYRYDEGLDYWGQGTTVTVSSGGGGSGGGGSGGGGSDIELTQSPASLAVSLGRRATISCRASESVDSYGHSFMHWYQQKPGQPPKLLIYLASNLESGVPARFSGSGSRTDFTLTIDPVEADDAATYYCQQNNEDPYTFGGGTKLEIKR; 0.00032
scFv 1F3 (scFv) scFv: EVQLQQSGARLVKPGASVKLSCKASGYTFTSFWMHWVKQRPGRGLEWIGRLDPNSGETKYNEKFKSKATLTVDKPSSTAYMELSSLTSEDSAVYYCAREAYGYWNFDVWGTGTTVTVSSGGGGSGGGGSGGGGSDIELTQSPASMSASPGEKVTMTCRATSSVSSSYLHWYQQKSGASPKLWIYSASNLASGVPSRFSGSGSGTSYLSTISSVEAEDAATYYCQQYIGYPYTFGGGTKLEIKR; 0.011

Query binder follows.
Memo: scFv C25 (scFv) scFv: QVQLQESGGGLVKPGGSLKLSCAASGFTFSDYYMYWVRQTPEKRLEWVATISDGGSYTYYPDSVKGRFTISRDNAKNNLYLQMSSLKSEDTAMYYCSRYRYDDAMDYWGQGTTVTVSSGGGGSGGGGSGGGGSDIELTQSPASLAVSLGQRATISCRASESVDSYGHSFMQWYQQKPGQPPKLLIYRASNLEPGIPARFSGSGSGTDFTLTINPVEADDVATYYCQQSNEDPFTFGSGTKLEIKR , reported koff: 0.00033
